- measured on: human ether-à-go-go-related gene (hERG) potassium channel (human, UniProt Q12809)
- Sequence (Q12809 whole entry, looked up): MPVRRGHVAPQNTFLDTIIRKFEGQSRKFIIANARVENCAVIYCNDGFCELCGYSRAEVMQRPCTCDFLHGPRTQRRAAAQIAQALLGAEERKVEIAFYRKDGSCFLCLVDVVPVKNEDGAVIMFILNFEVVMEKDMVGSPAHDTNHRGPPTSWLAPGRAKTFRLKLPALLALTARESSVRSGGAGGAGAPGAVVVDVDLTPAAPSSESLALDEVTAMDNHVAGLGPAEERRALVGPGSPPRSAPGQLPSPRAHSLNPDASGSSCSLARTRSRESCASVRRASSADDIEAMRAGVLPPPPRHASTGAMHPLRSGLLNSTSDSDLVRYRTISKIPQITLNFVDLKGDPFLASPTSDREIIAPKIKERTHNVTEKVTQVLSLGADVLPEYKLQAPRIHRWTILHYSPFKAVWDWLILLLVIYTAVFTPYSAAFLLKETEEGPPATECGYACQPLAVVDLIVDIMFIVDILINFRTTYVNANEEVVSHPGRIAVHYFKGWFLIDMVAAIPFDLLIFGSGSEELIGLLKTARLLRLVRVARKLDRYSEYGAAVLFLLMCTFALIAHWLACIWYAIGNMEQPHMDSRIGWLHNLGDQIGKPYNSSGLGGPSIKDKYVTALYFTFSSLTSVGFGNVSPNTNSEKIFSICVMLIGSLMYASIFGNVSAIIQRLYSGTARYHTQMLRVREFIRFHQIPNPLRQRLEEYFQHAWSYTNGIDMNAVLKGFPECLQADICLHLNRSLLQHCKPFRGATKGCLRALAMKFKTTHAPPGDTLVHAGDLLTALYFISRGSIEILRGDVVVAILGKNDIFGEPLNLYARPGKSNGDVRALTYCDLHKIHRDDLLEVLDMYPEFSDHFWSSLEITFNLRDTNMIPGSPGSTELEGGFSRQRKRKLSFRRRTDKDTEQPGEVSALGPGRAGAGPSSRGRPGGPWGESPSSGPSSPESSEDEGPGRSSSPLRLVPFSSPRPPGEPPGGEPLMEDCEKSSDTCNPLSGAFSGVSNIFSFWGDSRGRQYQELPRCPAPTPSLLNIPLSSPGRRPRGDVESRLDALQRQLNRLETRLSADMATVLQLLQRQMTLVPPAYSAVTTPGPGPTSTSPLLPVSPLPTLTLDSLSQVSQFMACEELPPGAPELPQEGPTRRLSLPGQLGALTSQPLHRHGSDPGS
- protocol description: primary screen, population patch clamp on CHO cells stably expressing hERG; higher = less effect of the substance;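 further: peak tail current of the secondary pulse compared with the same well before compound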
About 14,000 (4.5%) of roughly 310,000 compounds showed an effect of 50% or more. Effects have a minus sign here. The entries come from a sample that favours strong results as a whole.
Use -50% as the dividing line for hERG current change (%, negative = inhibition) at 10uM, with the line itself on the MET side and lower values as NOT MET.

| molecule | label value |
| --- | --- |
| Br.N=c1n(CCN2CCOCC2)c2ccccc2n1CC(=O)c1cccc([N+](=O)[O-])c1 | MET |
| Oc1ccc(Br)cc1CN1CCCCCCC1 | MET |
| CCN(CC)c1nc2ccccc2n2cnnc12 | MET |
| Cl.ClC(CCN1CCN(Cc2ccccc2)CC1)c1ccccc1 (stereo not drawn) | MET |
| O=S(=O)(NCCN1CCCC1)c1ccc(Cl)cc1 | MET |
| Oc1ccc(-c2ccccc2)cc1CN1CCCCCC1 | NOT MET |

====

- measured on: human ether-à-go-go-related gene (hERG) potassium channel (human)
- protocol description: primary screen, population patch clamp on CHO cells stably expressing hERG; higher = less effect of the substance
Screen size: about 310,000 compounds; about 14,000 (4.5%) showed an effect of 50% or more. The effect is printed as a negative number. Shown is part of a subset that was picked to be rich in strong results.
metric: hERG current change (%, negative = inhibition) at 10uM (%)

| item smiles | recorded measurement |
| --- | --- |
| CCN(CC(=O)Nc1ccc2c(c1)OCCO2)S(=O)(=O)c1cccs1 | -4.54 |
| CC(C)n1c(SCC(=O)N2CCCC2)nc2c1c(=O)n(C)c(=O)n2C | -5.03 |
| COc1ccccc1CNc1cc(CSc2ccc(Cl)cc2)nc(C)n1 | -0.554 |
| CC(C)n1c(CN2CCN(C(=O)c3ccco3)CC2)nc2c1c(=O)n(C)c(=O)n2C | -7.57 |
| Cn1c(=O)c2c(nc(N3CCOCC3)n2CCSc2ncccn2)n(C)c1=O | 0.639 |

====

- measured on: human ether-à-go-go-related gene (hERG) potassium channel (human)
- protocol description: primary screen, population patch clamp on CHO cells stably expressing hERG; higher = less effect of the substance
The campaign covered roughly 310,000 compounds. About 14,000 (4.5%) showed an effect of 50% or more. The effect is printed as a negative number. The list comes from a sample in which strong results are over-represented; it also holds close analogues and randomly drawn compounds.
metric: hERG current change (%, negative = inhibition) at 10uM

| item smiles | recorded measurement |
| --- | --- |
| Cc1cc(C(=O)O[C@H]2[C@H](Cc3ccccc3)NS(=O)(=O)[C@H]3C[C@@H]4C=C[C@]23O4)ccc1[N+](=O)[O-] | -1.67% |
| COc1ccc(NC(=O)CCNS(=O)(=O)c2ccc3c(c2)CCC(=O)N3)cc1 | -2.85% |
| COc1cccc(OC)c1C(=O)OCC(=O)N(c1ccccc1)C1CCCCC1 | -4.4% |
| Cc1cccc(NC(=O)/C(=C/c2cccc([N+](=O)[O-])c2)NC(=O)c2cccs2)c1 | 10.2% |

====

// reported hERG current change (%, negative = inhibition) at 10uM for each item listed
- measured on: human ether-à-go-go-related gene (hERG) potassium channel (human, UniProt Q12809)
- protocol description: primary screen, population patch clamp on CHO cells stably expressing hERG; higher = less effect of the substance
The campaign covered roughly 310,000 compounds. About 14,000 (4.5%) showed an effect of 50% or more. The effect is printed as a negative number. This is one part of a sample in which strong results are shown more often than they occur.
metric: hERG current change (%, negative = inhibition) at 10uM (%)

| item smiles | recorded measurement |
| --- | --- |
| Brc1ccc2ncnc(NCc3cccnc3)c2c1 | -60.2 |
| c1cncc(CNc2ncnc3sccc23)c1 | 17.8 |
| Brc1ccc2ncnc(NCc3ccccc3)c2c1 | -10.3 |
| c1cncc(CNc2ncnc3ccc(-c4ccoc4)cc23)c1 | -71.4 |
| Clc1ccc(Cn2ncc3c(NCc4ccccc4)ncnc32)cc1 | -1.94 |
| Clc1ccc(Cn2ncc3c(N4CCCC4)ncnc32)cc1 | -56.7 |
| Clc1ccc(Cn2ncc3c(N4CCCCC4)ncnc32)cc1 | -14.4 |
| Cn1c(=O)c2c(nc(CN3CCc4ccccc4C3)n2Cc2ccc(F)cc2)n(C)c1=O | -26.5 |
| COc1ccc(N2CCN(Cc3nc4c(c(=O)n(C)c(=O)n4C)n3Cc3cccc(C)c3)CC2)cc1 | -52.3 |
| Cn1c(=O)c2c(nc(CN3CCc4ccccc4C3)n2Cc2cccc(Cl)c2)n(C)c1=O | -53.9 |
